Catalogue of MIC values
- Tested on: M. tuberculosis H37Rv
- Assay Summary: microbe, parasite or virus in culture
- Type: cell-based
- Condition Summary: Mycobacterium tuberculosis, H37RV; read-out: MIC, 7H11 Agar, H37Rv
All answers are understood in µg/mL, so give the number only.

{"columns": ["Smiles Code", "MIC (µg/mL)"],
 "data": [
  ["COc1ncnc(Cn2cc(C(=O)NCCO)c3ncc(C)cc32)c1C", 0.25]
]}

Record request: MIC value, item COc1nc2ccc(Br)cc2cc1[C@@H](c1ccccc1)[C@@](O)(CCN(C)C)c1cccc2ccccc12
0.03

Query (compound): CC(C)/N=c1\cc2n(-c3ccc(Cl)cc3)c3ccccc3nc-2cc1Nc1ccc(Cl)cc1 ; field requested: MIC
0.25

Consider the compound CC(=O)NC[C@H]1CN(c2ccc(N3CCOCC3)c(F)c2)C(=O)O1 and give its measured MIC.
0.5

Which MIC value is on record for O=[N+]([O-])c1cn2c(n1)OC[C@@H](OCc1ccc(OC(F)(F)F)cc1)C2 ?
0.06

MIC for CCc1nc2ccc(Cl)cn2c1C(=O)NCc1ccc(N2CCC(c3ccc(OC(F)(F)F)cc3)CC2)cc1 ?
0.008

----------
- Test system: M. tuberculosis H37Rv
- Assay Summary: microbe, parasite or virus in culture
- Type: cell-based
- Condition Summary: Mycobacterium tuberculosis, read-out: MIC, 7H9 Broth, H37Rv
Let's look at some compounds and their measured MIC.
The figure you give is taken to be in µg/mL; do not add the unit.

Form field: reported MIC of COc1nc2ccc(Br)cc2cc1[C@@H](c1ccccc1)[C@@](O)(CCN(C)C)c1cccc2ccccc12
0.25

Item CC(=O)NC[C@H]1CN(c2ccc(N3CCOCC3)c(F)c2)C(=O)O1 has what recorded MIC?
1

Which MIC value belongs to O=[N+]([O-])c1cn2c(n1)OC[C@@H](OCc1ccc(OC(F)(F)F)cc1)C2 ?
0.125

Bench note: what MIC did COc1c(N2C[C@@H]3CCCN[C@@H]3C2)c(F)cc2c(=O)c(C(=O)O)cn(C3CC3)c12 show?
0.5

Fill in the blank: the reported MIC of CO[C@H]1/C=C/O[C@@]2(C)Oc3c(C)c(O)c4c(O)c(c(/C=N/N5CCN(C)CC5)c(O)c4c3C2=O)NC(=O)/C(C)=C\C=C\[C@H](C)[C@H](O)[C@@H](C)[C@@H](O)[C@@H](C)[C@H](OC(C)=O)[C@@H]1C is ____.
0.25

----------
- Tested on: M. tuberculosis HN878
- Assay Summary: microbe, parasite or virus in culture
- Assay type: cell-based
- Condition Summary: Mycobacterium tuberculosis, HN878; read-out: MIC, 7H11 Agar, HN878
Lab note: anything with MIC below 0.03 µg/mL is marked Condition met; values at 0.03 µg/mL or higher are marked Condition not met.

{"columns": ["Smiles Code", "Group"],
 "data": [
  ["CCc1nc2ccc(Cl)cn2c1C(=O)NCc1ccc(N2CCC(c3ccc(OC(F)(F)F)cc3)CC2)cc1", "Condition met"],
  ["CC(C)/N=c1\\cc2n(-c3ccc(Cl)cc3)c3ccccc3nc-2cc1Nc1ccc(Cl)cc1", "Condition not met"],
  ["COc1ncnc(Cn2cc(C(=O)NCCO)c3ncc(C)cc32)c1C", "Condition not met"],
  ["O=[N+]([O-])c1cn2c(n1)OC[C@@H](OCc1ccc(OC(F)(F)F)cc1)C2", "Condition not met"]
]}

Could you now consider this next molecule?
Lab note: confirm whether the reported MIC for this molecule is below 0.03 µg/mL, equality not counting. molecule: COc1cc([C@](O)(CCN(C)C)[C@@H](c2cc3cc(Br)ccc3nc2OC)c2cc(OC)nc(OC)c2OC)cc(OC)n1
Condition met
